Target: M1 muscarinic receptor (Homo sapiens, UniProt P11229)
Construct: expressed in transfected cells; host or cells: CHO (M1-CHO)
Sequence (P11229 1-460): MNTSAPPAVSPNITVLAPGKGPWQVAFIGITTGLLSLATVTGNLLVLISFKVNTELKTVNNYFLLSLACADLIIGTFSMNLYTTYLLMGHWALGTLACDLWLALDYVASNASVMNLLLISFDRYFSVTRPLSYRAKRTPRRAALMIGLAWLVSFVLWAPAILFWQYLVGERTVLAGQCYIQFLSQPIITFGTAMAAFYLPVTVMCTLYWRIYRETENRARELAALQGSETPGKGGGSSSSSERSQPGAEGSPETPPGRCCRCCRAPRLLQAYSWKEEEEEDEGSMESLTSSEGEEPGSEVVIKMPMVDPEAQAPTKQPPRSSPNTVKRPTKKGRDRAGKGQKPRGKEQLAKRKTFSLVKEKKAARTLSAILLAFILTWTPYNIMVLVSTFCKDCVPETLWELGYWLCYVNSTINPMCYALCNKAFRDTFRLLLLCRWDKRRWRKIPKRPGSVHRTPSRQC
Test: Functional mobilization of intracellular calcium (FLIPR), M1-CHO cells
Format: cell-based
Conditions: 100% efficacy = maximum response obtained with the Carbachol control
Emax values, listed per item
readout_kind: Emax

[
  {
    "compound": "Cc1ccc(F)cc1C1CCN(C2C[C@H]3CC[C@H]2C3)CC1 (stereo partly drawn) [Compound 73]",
    "target_of_assay": "M1 muscarinic receptor (Homo sapiens, UniProt P11229)",
    "recorded_value": "25 to 100%"
  },
  {
    "compound": "COc1ccc(C(=O)c2ccsc2)cc1C1CCN([C@H]2C[C@H]3CC[C@H]2C3)CC1 [Compound 230]",
    "target_of_assay": "M1 muscarinic receptor (Homo sapiens, UniProt P11229)",
    "recorded_value": "< 25%"
  },
  {
    "compound": "COc1ccc(Cl)cc1C1CCN(C2CCC(F)(F)CC2)CC1 [Compound 115]",
    "target_of_assay": "M1 muscarinic receptor (Homo sapiens, UniProt P11229)",
    "recorded_value": "25 to 100%"
  },
  {
    "compound": "COc1c(F)cc(F)cc1C1CCN(C2CC3CCC(C3)C2)CC1 (stereo not drawn) [Compound 311]",
    "target_of_assay": "M1 muscarinic receptor (Homo sapiens, UniProt P11229)",
    "recorded_value": "< 25%"
  },
  {
    "compound": "COc1ccccc1C1CCN(C2CC(C)(C)CC(C)(C)C2)CC1 [Compound 138]",
    "target_of_assay": "M1 muscarinic receptor (Homo sapiens, UniProt P11229)",
    "recorded_value": "< 25%"
  },
  {
    "compound": "FC(F)(F)c1ccccc1C1CCN(C2C[C@H]3CC[C@H]2C3)CC1 (stereo partly drawn) [Compound 32]",
    "target_of_assay": "M1 muscarinic receptor (Homo sapiens, UniProt P11229)",
    "recorded_value": "25 to 100%"
  },
  {
    "compound": "Cc1cccc(C2CCN(C3C[C@H]4CC[C@H]3C4)CC2)c1C (stereo partly drawn) [Compound 225]",
    "target_of_assay": "M1 muscarinic receptor (Homo sapiens, UniProt P11229)",
    "recorded_value": "25 to 100%"
  },
  {
    "compound": "COc1ccc(Cl)cc1C1(OC)CCN(C2CC3CCC2C3)CC1 (stereo not drawn) [Compound 308]",
    "target_of_assay": "M1 muscarinic receptor (Homo sapiens, UniProt P11229)",
    "recorded_value": "< 25%"
  },
  {
    "compound": "COc1ccc(Cl)cc1C1(OC)CCN(CC2CCOCC2)CC1 [Compound 123]",
    "target_of_assay": "M1 muscarinic receptor (Homo sapiens, UniProt P11229)",
    "recorded_value": "25 to 100%"
  }
]
